These data points were gathered from the Deep4Chem optical property database.

# Procedure summary: solvent given as SMILES
# Condition set: in ClCCl

Molecule	Unit of measurement	absorption maximum
c1csc(-c2ccc(-c3cccs3)s2)c1	nm	355
CN(C)c1ccc(/C=C/c2cnccn2)cc1	nm	389
CCCCCN(c1ccccc1)c1ccc2c(c1)C(CC)(CC)c1cc(/C=C/c3ccc(/C=C(\C#N)C(=O)O)s3)ccc1-2	nm	470
CCC1=C(C)C2=C(c3c4ccccc4c(-c4ccccc4)c4ccccc34)c3c(C)c(CC)c(C)n3[B-](F)(F)[N+]2=C1C	nm	532
COc1ccc(C(=O)/C=C2\C(=O)Nc3ccccc32)cc1	nm	339
COc1cc(N(c2ccccc2)c2ccccc2)ccc1C=C(C#N)C#N	nm	446
CCCCCC#Cc1cc(C#CCCCCC)c2ccc3c(C(=O)c4ccccc4)cc(C#CCCCCC)c4ccc1c2c43	nm	416
CC1=C(c2ccc(N(C)C)cc2)C(C)=[N+]2C1=C(c1c(-c3ccccn3)nc3ccccn13)c1c(C)cc(C)n1[B-]2(F)F	nm	538
CCN(CC)c1ccc(/C=N/C2CCCCC2/N=C/c2ccc(N(CC)CC)cc2O)c(O)c1 (centres undefined)	nm	403

----------
# Procedure summary: solvent given as SMILES
# Condition set: in Cc1ccccc1
Entries annotated with measured absorption maximum
Measured parameter: absorption maximum (nm)

CC(C)(C)c1ccc(-c2nc3c4ccc(-c5cc6ccccc6c6ccccc56)cc4c4cc(-c5cc6ccccc6c6ccccc56)ccc4c3n2-c2ccc(C(C)(C)C)cc2)cc1 327
CCN(CC)c1cccc(C=O)c1 380
N#Cc1nc2c(nc1C#N)C1c3ccc(N(c4ccccc4)c4ccccc4)cc3C2c2ccc(N(c3ccccc3)c3ccccc3)cc21 391
c1ccc(N(c2ccccc2)c2c3ccccc3c(N(c3ccccc3)c3ccccc3)c3ccccc23)cc1 461
COc1cc2c(cc1/C=C/C1=CC(=C(C#N)C#N)CC(C)(C)C1)c1ccccc1n2C 468
CN(C)c1ccc(/C=C/C=C2\CC/C(=C\c3ccc(N(C)C)cc3)C2=O)cc1 475
COc1cc(C2=c3c(c4ccc(C(C)(C)C)cc4c4cc(C(C)(C)C)ccc34)=[N+]3C2=Nc2c(-c4cc(OC)c(OC)c(OC)c4)c4c5ccc(C(C)(C)C)cc5c5cc(C(C)(C)C)ccc5c4n2[B-]3(F)F)cc(OC)c1OC 787

----------
# Procedure summary: solvent given as SMILES
# Condition set: in ClCCl
Entries annotated with measured absorption maximum
Measured parameter: absorption maximum (nm)

c1ccc(N(c2ccccc2)c2ccc(-c3ccc4c(c3)C3(c5cc(-c6ccc(N(c7ccccc7)c7ccccc7)cc6)ccc5O4)c4ccccc4-c4ccccc43)cc2)cc1 345
CCCCCCCCC1(CCCCCCCC)c2cc(C#Cc3ccc(N(c4ccccc4)c4ccccc4)cc3)ccc2-c2ccc(C=O)cc21 384
CC(C)(C)c1ccc(-n2c(-c3ccc(N(c4ccc(-c5ccc(N(c6ccc(-c7nc8c9ccccc9c9ccccc9c8n7-c7ccc(C(C)(C)C)cc7)cc6)c6ccc(-c7nc8c9ccccc9c9ccccc9c8n7-c7ccc(C(C)(C)C)cc7)cc6)cc5)cc4)c4ccc(-c5nc6c7ccccc7c7ccccc7c6n5-c5ccc(C(C)(C)C)cc5)cc4)cc3)nc3c4ccccc4c4ccccc4c32)cc1 377
Cc1cc(C)c(C2=[N+]3C(=Cc4c(C)cc(C)n4[B-]3(F)F)c3ccccc32)[nH]1 609
CC1=N/C(=C\c2ccc(N(C)C)cc2)C(=O)N1C 428
CN(C)c1ccc(C2=CC3=C(c4ccc(C=C(C#N)C#N)cc4)[C@H]4c5ccccc5[C@]3(S2)c2ccccc24)cc1 543
COc1ccc(/C=C/C2=CC(c3ccccc3)=[O+][B-](F)(F)O2)cc1 444
COc1ccc(/C=C/c2cc(/C=C/c3ccc(N(c4ccccc4)c4ccccc4)cc3)nc(/C=C/c3ccc(N(C)C)cc3)n2)cc1 386
COC(=O)c1cc(=O)n(C)c2cc(-c3ccccc3N(C)C)sc12 406
C(=C\c1cc(/C=C/c2ccc(N(c3ccccc3)c3ccccc3)cc2)ncn1)/c1ccc(N(c2ccccc2)c2ccccc2)cc1 427
COc1ccc(C#Cc2c3ccccc3c(C#Cc3ccc(OC)cc3)c3cc4sc(C)cc4cc23)cc1 520
CN(C)c1ccc(C2=Nc3ccc4c(C(F)(F)F)cc(C(F)(F)F)nc4[n+]3[B-](F)(F)O2)cc1 480
COc1ccc2oc(=N)c(C#N)cc2c1 388
COc1ccc(-c2cnc3cccc(-c4ccccc4)n23)cc1 341
O=[N+]([O-])c1ccc2c(ccc3[n+]2[B-](F)(F)n2c-3cc3c4ccccc4c4ccccc4c32)c1 530
F[B-]1(F)n2c(c3ccccc3c2-c2ccccc2)C(c2ccccc2)=C2c3ccccc3C(c3ccccc3)=[N+]21 631

----------
# Procedure summary: solvent given as SMILES
# Condition set: in CS(C)=O
Could you label it Yes if measured absorption maximum is 400 nm or higher, and No otherwise?

CCOC(=O)/C(C#N)=C/c1cc2c3ccccc3n(C)c2cc1OC Yes
CCN(CC)c1ccc2cc(/C=C/C(=C(C#N)C#N)c3ccc(N(c4ccccc4)c4ccccc4)cc3)c(=O)oc2c1 Yes
Fc1ccc2c(c1)sc1nc(-c3ccccc3)sc12 No
COc1cc2sc3cc(OC)c(F)cc3c(=O)c2cc1F No
CCC1=C(C)C(=O)n2c1cc1c(C)cc(C)n1c2=O Yes
N#C/C(=C\c1cn(-c2ccccc2)nc1-c1ccc([N+](=O)[O-])cc1)c1nc2ccccc2s1 No
O=CN1N=C(c2ccc(Br)cc2)C[C@@H]1c1ccccc1 No
CCCCC1(CCCC)c2cc(-c3ccc(C=C4C(=O)c5ccccc5C4=O)cc3)ccc2-c2ccc(-c3ccc(C=C4C(=O)c5ccccc5C4=O)cc3)cc21 Yes
COC(=O)[C@@H]1C(=O)Oc2ccccc2[C@H]1c1c[nH]c2ccccc12 No
O=c1oc2ccc(Br)cc2cc1-c1cc2cc(Br)ccc2o1 No
CCCCCCCCCCCCCCCCN(CCCCCCCCCCCCCCCC)c1ccc(/C=C/c2cc[n+](Cc3cc(C[n+]4ccc(/C=C/c5ccc(N(CCCCCCCCCCCCCCCC)CCCCCCCCCCCCCCCC)cc5)cc4)cc(C[n+]4ccc(/C=C/c5ccc(N(CCCCCCCCCCCCCCCC)CCCCCCCCCCCCCCCC)cc5)cc4)c3)cc2)cc1 Yes
Cc1cc(C)c(B(c2ccc(-c3nc4c5ccccc5c5ccccc5c4[nH]3)cc2)c2c(C)cc(C)cc2C)c(C)c1 No
CC(C)(C)c1cc2ccc3cc(C(C)(C)C)cc4c3c2c(c1)c(=O)n1c4nc2c3ccccc3c3ccccc3c21 No
CCN1\C(=C/C=C/C=C/C2=[N+](CC)c3ccc4cc(Br)ccc4c3C2(C)C)C(C)(C)c2c1ccc1cc(Br)ccc21 Yes
Cc1cc(O)c(C(C)C)cc1/N=C/c1ccc(O)cc1 No

----------
# Procedure summary: solvent given as SMILES
# Condition set: in CC#N
Entries annotated with measured absorption maximum
Measured parameter: absorption maximum (nm)

Molecule	Measured number
CN1c2ccccc2C(O)(c2ccccc2)c2cc([N+](=O)[O-])ccc21 (configuration not stated)	396.9
COC(=O)C[C@H](Cc1c[nH]c2ccccc12)NC(=O)[C@H](CC(=O)N[C@@H](CC1=CCc2ccccc21)C(=O)OC)NC(=O)[C@H](Cc1c[nH]c2ccccc12)NC(=O)OC(C)(C)C	280
CC1=[N+]2C(=C(c3c4ccccc4c(C)c4ccccc34)c3ccc(C)n3[B-]2(F)F)C=C1	514
CCC1=C(C)C2=Cc3c4ccccc4c4n3[B-](c3ccncc3)(Oc3ccccc3-4)[N+]2=C1C (configuration not stated)	621
COc1cc2cc(/C=C/c3ccc(/C=C(\C#N)C(=O)O)cc3)c(=O)oc2cc1OC	400
CCN1c2ccc(-c3cc(-c4ccccc4)[nH]n3)cc2Sc2cc(-c3cc(-c4ccccc4)[nH]n3)ccc21	338
CCOC(=O)COc1ccc(/C=C/C2=C3c4ccccc4C(c4[nH]c(C)cc4C)=[N+]3[B-](F)(F)n3c(C)cc(C)c32)cc1	602
C(=C\c1ccnc2ccccc12)/c1ccc(/C=C/c2ccnc3ccccc23)cc1	370
C(#Cc1nccnc1C#Cc1ccccc1)c1ccccc1	315
COc1ccc(C(=O)/C=C2\C(=O)Nc3ccccc32)cc1	335
CCN(CC)c1ccc2cc(-c3cn4ccccc4n3)c(=O)oc2c1	421
CCC(CC)COC1=CC2=C3c4cc(OCC(CC)CC)c(-c5ccccc5)n4[B-](F)(F)[n+]4c3n(c3cc(C(C)(C)C)ccc34)[B-](F)(F)[N+]2=C1c1ccccc1	694
COc1ccc2nc3c(nc2c1)c(-c1ccccc1)nn3C	434
CCCCN1C(=O)c2cccc3c(OC)ccc(c23)C1=O	376
C[n+]1ccc(-c2cc[n+](C)cc2)cc1	260
CC(=O)c1nc(-c2ccc(C)cc2)oc1C	271
Cc1cccc(NC(=O)c2ccc(N(C)C)cc2)c1	314
CCC1=C(C)C(=O)n2c1cc1c(C)cc(C)n1c2=O	409
CCC1(CC)c2cc(B(c3c(C)cc(C)cc3C)c3c(C)cc(C)cc3C)ccc2-c2ccc(N(c3ccccc3)c3ccc4c(c3)C(CC)(CC)c3cc(B(c5c(C)cc(C)cc5C)c5c(C)cc(C)cc5C)ccc3-4)cc21	417
Cc1c2ccncc2c(C)c2c1[nH]c1ccccc12	291.5
COC(=O)C(Cc1ccc2oc(-c3ccncc3)nc2c1)NC(=O)OC(C)(C)C (configuration not stated)	302.86
CCCCn1c2ccc(/C=C(\C#N)c3ccc([N+](=O)[O-])cc3)cc2c2cc(Cn3c(-c4ccc5c(c4)c4ccccc4n5CCCC)nc4ccccc43)ccc21	416
CCCCC(CC)CN1C(=O)c2cccc3c(C#Cc4ccc(N(c5ccccc5)c5ccc(C#Cc6ccc7c8c(cccc68)C(=O)N(CC(CC)CCCC)C7=O)cc5)cc4)ccc(c23)C1=O (configuration not stated)	456
Fc1nc(F)c(F)c(C#Cc2cc3c(cc2C#Cc2c(F)c(F)nc(F)c2F)OC2(CCCCC2)O3)c1F	360
CC1=[N+]2C(=C(c3c4ccccc4c(-c4ccccc4)c4ccccc34)c3ccc(C)n3[B-]2(F)F)C=C1	514
C(=C\c1cccnc1)/c1ccc(Nc2ccccc2)cc1	358
COc1ccc(-c2csc(/C(C#N)=C/c3ccc(C#N)cc3)n2)cc1	389
CC(=O)c1ccc2ccc3cccc4ccc1c2c34	382
COC(=O)C[C@H](Cc1c[nH]c2ccccc12)NC(=O)[C@H](CC(=O)N[C@@H](CC1=CCc2ccccc21)C(=O)OC)NC(=O)OC(C)(C)C	280
CCCSC1=[N+]2C(=C(c3ccccc3)c3ccc(SCCC)n3[B-]2(F)F)C=C1	574
CCN(CC)c1ccc(/N=N/c2nc3ccc([N+](=O)[O-])cc3s2)cc1	546
CCN(CC)c1cccc(C=O)c1	380
Cc1sc(Cl)cc1-c1nc(-c2ccc(Cl)cc2)[nH]c1-c1cc(Cl)sc1C	309
c1ccc(N(c2ccccc2)c2ccc3c4cccc5c(N(c6ccccc6)c6ccccc6)ccc(c6cccc2c63)c54)cc1	483
Cc1ccc(-c2ccc(/C=C/c3cccs3)cn2)nc1	348
COc1ccc2c(=O)c3c([nH]c2c1)-c1ccccc1NC3(C)C	415
Cn1cc(/C=C/C(=O)c2ccccc2)c2ccccc21	381.03
